Parameter: IC50. Scope: all listed entries.
System: DU-145
Assay notes: Cytotoxicity against human DU145 cells after 48 hrs by SRB method
Format: functional, cell-based
Condition notes: DU-145, 48 h

See these solved cases before continuing.
substance_smiles=c1csc(-c2ccc(-c3nc4ccccc4c4c3[nH]c3ccccc34)s2)c1 assay_metric=IC50 endpoint_result="0.52 µM"
substance_smiles=COc1cccc2c1C(=O)c1c(O)c3c(c(O)c1C2=O)C[C@@](O)(C(=O)CO)C[C@@H]3O[C@H]1C[C@H](N)[C@H](O)[C@H](C)O1 assay_metric=IC50 endpoint_result="3.11 µM"
substance_smiles=c1ccc2nc(-c3nc4ccccc4c4c3[nH]c3ccccc34)ccc2c1 assay_metric=IC50 endpoint_result="41.5 µM"

### Prompt IC50 for `Fc1cccc(Cl)c1-c1nc2ccccc2c2c1[nH]c1ccccc12` ?
### Response 14 µM

### Prompt IC50 for `c1ccc(COc2ccc(-c3nc4ccccc4c4c3[nH]c3ccccc34)cc2)cc1` ?
### Response 70 µM

### Prompt IC50 for `Cc1cn([C@H]2C[C@H](N=[N+]=[N-])[C@@H](CO)O2)c(=O)[nH]c1=O` ?
### Response 34.5 µM

### Prompt IC50 for `Cc1cn([C@H]2C[C@H](N=[N+]=[N-])[C@@H](c3nc4ccccc4c4c3[nH]c3ccccc34)O2)c(=O)[nH]c1=O` ?
### Response 10.1 µM

### Prompt IC50 for `C=CCOc1ccc(-c2nc3ccccc3c3c2[nH]c2ccccc23)cc1` ?
### Response 23.6 µM

### Prompt IC50 for `c1ccc(Oc2ccc(-c3nc4ccccc4c4c3[nH]c3ccccc34)cc2)cc1` ?
### Response 54 µM
